Target: T1, Monomeric human CD48-mmH (human)
T1 construct: also called soluble CD48 expressed with a myc-myc-hexa-histidine C-terminal tag [mmH]
T1 chain: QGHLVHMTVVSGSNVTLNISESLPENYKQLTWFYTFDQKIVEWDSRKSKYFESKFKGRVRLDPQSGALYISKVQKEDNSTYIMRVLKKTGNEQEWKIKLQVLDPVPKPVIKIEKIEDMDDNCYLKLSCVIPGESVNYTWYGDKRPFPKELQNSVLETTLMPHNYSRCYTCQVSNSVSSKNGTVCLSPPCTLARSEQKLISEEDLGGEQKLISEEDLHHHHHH
Experiment: SPR (Biacore T100), 25 C, antibody captured by anti-Fc, monomeric CD48-mmH in solution
recorded_metric: koff
Number plus unit, in that order.

Entry H4H1774P (antibody, human IgG4, V domains shown, Human IgG4 Fc (prefix H4H)) VH: QVQLVESGGGVVQPGRSLRLSCAASGFTFSNYGMHWVRQAPGKGLEWVAVIWYDESSKYYTDSVKGRFTISRDNSQNTLYLQMTSLRAEDTAVYYCARDRWTYSHYFEYWGQGTLVTVSS VL: DIQMTQSPSSVSASVGDRVTITCRASQGISSWVAWYQQKPGKAPKLLIYAASSLQSGVPSRFSGSGSGTDFTLTISSLQPEDFATYYCQQANSFPRTFGQGTKVEIK : reported koff = ?
4.72e-05 s⁻¹

Entry H4H1772P (antibody, human IgG4, V domains shown, Human IgG4 Fc (prefix H4H)) VH: EVQLVESGGGLVQPGGSLRLSCAASGFTFSSYWMSWVRQAPGKGLEWVANIMRDGSEKYYVDSVKGRFTISRDNAKNSLYLQMNSLRGEDTAVYYCARERGFYTNYGNWFDPWGQGTLVTVSS VL: DIVMTQSPLSLTVTPGESASISCRSSQSLLHSYGYNSLDWYLQKPGQSPQFLIYLVSNRASGVPDRFSGSGSGTDFTLKISRVEAEDVGVYYCMQVLQTPYTFGQGTKLEIK : reported koff = ?
0.000176 s⁻¹

Entry H4H1770P (antibody, human IgG4, V domains shown, Human IgG4 Fc (prefix H4H)) VH: QVQLVQSGAEVKKPGAAVKVSCKASGYTFTAYGISWVRQAPGQGLEWMGWISAYDGDTNNAQKFQGRVTMTTDTSSSTAYMELRSLGSDDTAVYYCARDRYSSSSGYFDYWGQGTLVTVSS VL: DIQMTQSPSSVSASVGDRVTITCRASQDISSWLAWSQQKPGKAPKALIYAASSLQSGVPSRFSGSGSGTDFTLTISSLQPEDFATYYCQQANSFPYTFGQGTKLEIK : reported koff = ?
0.000153 s⁻¹

Entry H4H1779P (antibody, human IgG4, V domains shown, Human IgG4 Fc (prefix H4H)) VH: QVQLVESGGGVVQPGRSLRLSCAASGFTFSNYGMHWVRQAPGKGLEWVAVIWYDESSKHYADSVKGRFTISRDNSQNTLYLQMTSLRAEDTAVYYCARDRWTYSHYFEYWGQGTLVTVSS VL: DIQMTQSPSSVSASVGDRVTITCRASQDISSWVAWYQQKPGKAPKLLIYAASSLQSGVPSRFSGSGSGTDFTLTISSLQPEDFATYYCQQANSFPRTFGQGTKVEIK : reported koff = ?
3.9e-05 s⁻¹

Entry H2M1713N (antibody, mouse IgG2, V domains shown, Human variable domains, mouse IgG2 Fc (prefix H2M)) VH: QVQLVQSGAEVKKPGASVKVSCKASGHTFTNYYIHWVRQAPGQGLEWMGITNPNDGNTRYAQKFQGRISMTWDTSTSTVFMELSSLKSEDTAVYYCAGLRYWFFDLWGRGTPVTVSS VL: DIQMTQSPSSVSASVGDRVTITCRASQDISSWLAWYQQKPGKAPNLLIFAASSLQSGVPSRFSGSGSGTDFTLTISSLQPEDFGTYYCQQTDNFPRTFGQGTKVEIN : reported koff = ?
0.000217 s⁻¹

Entry H4H1707N (antibody, human IgG4, V domains shown, Human IgG4 Fc (prefix H4H)) VH: EGQLLESGGGLAQPGGSLRLSCAASGITFGRYAMSWVRQAPGKGLEWVSLISGSGGSTYHADSVKGRFTISRDNSKNTLYLQMNSLRAEDTAVYYCAIYNNYNWFDPWGQGTLVTVSS VL: EIVLTQSPGTLSLSPGERATLSCRASQSVSSNYLAWYQQKPGQAPRLLIYDASSRATDIPDRFSGSGSGTDFTLTISRLEPEDFAVYYCQQYGSSPRTFGQGTKVEIK : reported koff = ?
0.000601 s⁻¹

All values here come from patent US20130230533A1.
